Values were extracted from patent US20260132132A1.

Here's what we have: IC50 numbers for FXa (Homo sapiens).

Compound | Result
CN1CCc2ccc(N3CCc4c(C(=O)NCC5CC5)nn(-c5cccc(Cl)c5F)c4C3=O)cc2C1=O | > 40 µM
O=C(NCc1ccco1)c1nn(-c2cccc(Cl)c2)c2c1CCN(c1ccc3c(c1)CN(CCO)CC3)C2=O | > 40 µM
CN1CCc2ccc(N3CCc4c(C(=O)NCC5CCOC5)nn(-c5cccc(Cl)c5)c4C3=O)cc2C1 (stereo not shown) | 10 to 40 µM
CN1CCCc2ccc(N3CCc4c(C(=O)NCc5ccccc5)nn(-c5cccc(Cl)c5)c4C3=O)cc2C1 | 3 to 10 µM
Cc1cc(CNC(=O)c2nn(-c3cccc(Cl)c3)c3c2CCN(c2ccc4c(c2)C(=O)N(C)CC(=O)N4C)C3=O)nn1C | 10 to 40 µM
CCOC(=O)c1nn(-c2cccc(Cl)c2)c2c1CCN(c1ccc3c(c1)CN(C)CC3)C2=O | 0.3 to 1 µM

Now for the compound whose IC50 we want.
IC50 reported for this compound "O=C(NCC1CC1)c1nn(-c2cccc(Cl)c2)c2c1CCN(c1cccc(CN3CCCCC3)c1)C2=O" : > 10 µM
